Data provenance: ChEMBL document CHEMBL4480391

- Experiment: Selectivity ratio of IC50 for human A549 cells to IC50 for human A549/TAX cells
- Assay type: functional
Each item that follows carries a reported Ratio IC50.
# print the numeric value only

Worked examples, 3 compounds total:
| Compound | Property measured | Observed measurement |
| --- | --- | --- |
| O=c1[nH]cc(F)c(=O)[nH]1 [FLUOROURACIL] | Ratio IC50 | 0.26 |
| CCCCCCCCC(SC(=O)c1cc(OC)c(OC)c(OC)c1)c1cc(OC)c2c(c1OC)/C(=N/O)C=C/C2=N\O (stereo unspecified) | Ratio IC50 | 11.5 |
| CCCCCCCCC(SC(=O)c1ccc(C)cc1)c1cc(OC)c2c(c1OC)/C(=N/O)C=C/C2=N\O (stereo unspecified) | Ratio IC50 | 7.62 |

For this compound ( CCCCCCCCC(SCCC(C)C)c1cc(OC)c2c(c1OC)/C(=N/O)C=C/C2=N\O (stereo unspecified) ), measured Ratio IC50 is 16

For this compound ( CCCCCCCC(SCCC(C)C)c1cc(OC)c2c(c1OC)/C(=N/O)C=C/C2=N\O (stereo unspecified) ), measured Ratio IC50 is 5.38
